Just for reference, patent US20210054097A1 is where these values come from.

# test system: T1, FX activation peptide 12-mer PYDAADLDPTEN (human)
# T1 peptide: PYDAADLDPTEN-biotin
# assay explanation: peptide ELISA
Ends that are not written are not given here.
Entries annotated with measured ELISA signal relative to background

Reference set (3 entries):
Consider the binder shown here: Nb 501A02 (VHH, monovalent control Nanobody; also called control Nanobody; not shown: C-terminal FLAG3 and HIS6 tag) VHH: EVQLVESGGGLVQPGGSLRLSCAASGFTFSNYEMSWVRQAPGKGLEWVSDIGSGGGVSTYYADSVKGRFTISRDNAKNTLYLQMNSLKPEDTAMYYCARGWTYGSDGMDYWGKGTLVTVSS What is its recorded ELISA signal relative to background?
0.79

Consider the binder shown here: Nb 729C08 (VHH, monovalent Nanobody; also called Nb 729008; not shown: C-terminal FLAG3 and HIS6 tag) VHH: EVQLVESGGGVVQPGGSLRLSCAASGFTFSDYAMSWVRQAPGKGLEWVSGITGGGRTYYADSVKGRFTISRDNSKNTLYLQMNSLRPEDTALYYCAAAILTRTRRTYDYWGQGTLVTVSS What is its recorded ELISA signal relative to background?
1.08

Consider the binder shown here: Nb 701C06 (VHH, monovalent Nanobody; not shown: C-terminal FLAG3 and HIS6 tag) VHH: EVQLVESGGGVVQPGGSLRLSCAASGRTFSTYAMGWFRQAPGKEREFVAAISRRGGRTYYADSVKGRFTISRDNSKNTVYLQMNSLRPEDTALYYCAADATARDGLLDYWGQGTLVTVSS What is its recorded ELISA signal relative to background?
0.82

Further cases:
Consider the binder shown here: Nb 701B09 (VHH, monovalent Nanobody; also called Nb 701609; not shown: C-terminal FLAG3 and HIS6 tag) VHH: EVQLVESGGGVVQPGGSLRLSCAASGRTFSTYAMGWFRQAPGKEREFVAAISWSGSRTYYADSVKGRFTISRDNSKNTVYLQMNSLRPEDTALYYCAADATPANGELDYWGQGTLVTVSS What is its recorded ELISA signal relative to background?
0.88

Consider the binder shown here: Nb 729A04 (VHH, monovalent Nanobody; not shown: C-terminal FLAG3 and HIS6 tag) VHH: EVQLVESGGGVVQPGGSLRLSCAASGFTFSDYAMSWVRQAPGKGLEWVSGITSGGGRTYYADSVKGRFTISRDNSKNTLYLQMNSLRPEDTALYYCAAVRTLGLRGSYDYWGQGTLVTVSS What is its recorded ELISA signal relative to background?
1.06

Consider the binder shown here: Nb 702C12 (VHH, monovalent Nanobody; not shown: C-terminal FLAG3 and HIS6 tag) VHH: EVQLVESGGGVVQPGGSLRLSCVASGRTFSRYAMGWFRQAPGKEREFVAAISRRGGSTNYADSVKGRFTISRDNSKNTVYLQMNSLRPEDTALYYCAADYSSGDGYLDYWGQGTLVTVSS What is its recorded ELISA signal relative to background?
0.83
